- Assay system: IGF-1R (Homo sapiens)
- Construct: expressed in transfected cells
- Assay summary: Example B-1: IGF-1R Assay (PC3 cells stimulated with IGF1, AlphaLISA on cell lysates)
- Format: cell-based
- Stated conditions: compound two hours, IGF1 200 ng/mL for 30 min, read-out: IC50, Biological Activity against IGF-1R (Table B1)
pIC50: −log10 of the molar value.
Readout kind: pIC50

Task item: # return recorded pIC50 for entry "CC(C)Nc1cc(CN2C(=O)N(c3ccc(C(C)(C)C#N)cc3)C(=O)C2(C)C)ccn1"
Reply: ≥ 6.30

Task item: # return recorded pIC50 for entry "CC(C)Nc1cc(CN2C(=O)N(c3ccc([Si](C)(C)C)cc3)C(=O)C2(C)C)ccn1"
Reply: ≥ 6.30

Task item: # return recorded pIC50 for entry "CSc1ccc(N2C(=O)N(Cc3ccnc(N)c3)C(C)(C)C2=O)cc1"
Reply: 5.00 to 5.70

Task item: # return recorded pIC50 for entry "CC(C)Nc1cc(CN2C(=O)N(c3ccc4c(C(F)(F)F)nn(C)c4c3)C(=O)C2(C)C)ccn1"
Reply: 5.70 to 6.30

Task item: # return recorded pIC50 for entry "CC1(C)C(=O)N(c2ccc(C3(C(F)(F)F)CC3)cc2)C(=O)N1Cc1ccnc(N[C@H]2CCCOC2)c1"
Reply: ≥ 6.30

More entries:
Task item: # return recorded pIC50 for entry "CC1(C)C(=O)N(c2ccc(SC(F)(F)F)cc2)C(=O)N1Cc1ccnc(NC(=O)C2CC3(CNC3)C2)c1"
Reply: ≥ 6.30

###

- Assay system: IGF-1R (Homo sapiens, UniProt P08069)
- Construct: expressed in transfected cells
- Sequence (P08069 31-1367): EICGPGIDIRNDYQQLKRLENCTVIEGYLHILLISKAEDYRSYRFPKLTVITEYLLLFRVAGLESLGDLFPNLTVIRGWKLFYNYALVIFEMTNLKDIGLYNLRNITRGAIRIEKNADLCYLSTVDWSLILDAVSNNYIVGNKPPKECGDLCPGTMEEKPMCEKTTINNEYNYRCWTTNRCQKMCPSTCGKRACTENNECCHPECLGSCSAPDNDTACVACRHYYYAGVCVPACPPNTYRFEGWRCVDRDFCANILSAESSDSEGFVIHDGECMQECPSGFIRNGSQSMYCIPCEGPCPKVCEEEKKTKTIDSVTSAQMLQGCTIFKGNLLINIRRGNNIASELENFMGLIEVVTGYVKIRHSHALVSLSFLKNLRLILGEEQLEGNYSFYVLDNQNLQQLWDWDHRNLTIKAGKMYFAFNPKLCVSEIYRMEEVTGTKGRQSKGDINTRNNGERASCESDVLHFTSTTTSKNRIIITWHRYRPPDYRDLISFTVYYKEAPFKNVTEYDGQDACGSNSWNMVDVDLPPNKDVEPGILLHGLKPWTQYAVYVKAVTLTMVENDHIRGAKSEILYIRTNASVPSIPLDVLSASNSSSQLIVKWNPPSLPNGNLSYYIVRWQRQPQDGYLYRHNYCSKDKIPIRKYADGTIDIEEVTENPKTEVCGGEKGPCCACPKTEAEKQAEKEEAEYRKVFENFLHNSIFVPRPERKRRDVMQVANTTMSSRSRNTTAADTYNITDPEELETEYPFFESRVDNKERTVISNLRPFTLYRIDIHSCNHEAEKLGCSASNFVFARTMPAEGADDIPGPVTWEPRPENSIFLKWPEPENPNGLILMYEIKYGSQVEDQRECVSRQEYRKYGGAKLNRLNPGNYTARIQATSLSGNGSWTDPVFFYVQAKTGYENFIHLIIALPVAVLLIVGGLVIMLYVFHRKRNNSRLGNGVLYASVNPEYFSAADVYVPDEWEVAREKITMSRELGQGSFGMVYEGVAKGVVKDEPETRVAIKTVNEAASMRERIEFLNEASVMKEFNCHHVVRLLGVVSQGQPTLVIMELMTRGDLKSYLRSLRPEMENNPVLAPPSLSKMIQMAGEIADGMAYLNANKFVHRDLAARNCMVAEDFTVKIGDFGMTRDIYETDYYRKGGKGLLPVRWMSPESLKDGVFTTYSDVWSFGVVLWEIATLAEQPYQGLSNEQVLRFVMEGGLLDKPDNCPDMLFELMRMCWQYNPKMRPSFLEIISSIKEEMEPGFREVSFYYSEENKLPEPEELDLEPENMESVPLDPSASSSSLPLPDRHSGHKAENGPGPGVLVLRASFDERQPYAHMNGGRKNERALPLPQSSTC
- Assay summary: Example B-1: IGF-1R Assay (PC3 cells stimulated with IGF1, AlphaLISA on cell lysates)
- Type: cell-based
- Stated conditions: compound two hours, IGF1 200 ng/mL for 30 min, read-out: IC50, Biological Activity against IGF-1R (Table B1)
pIC50: −log10 of the molar value.
The following compounds are listed with their measured pIC50 values.

Answered cases to consult:
Task item: Tell me its pIC50 on IGF-1R (Homo sapiens, UniProt P08069): COc1ccc(NC(=O)Nc2cc(CN3C(=O)N(c4ccc(SC(F)(F)F)cc4)C(=O)C3(C)C)ccn2)cc1 [Compound 363]
Reply: ≥ 6.30

Task item: Tell me its pIC50 on IGF-1R (Homo sapiens, UniProt P08069): CC(C)[C@@H]1C(=O)N(c2ccc(SC(F)(F)F)cc2)C(=O)N1Cc1ccnc(N)c1 [Compound 295]
Reply: 5.00 to 5.70

More entries:
Task item: Tell me its pIC50 on IGF-1R (Homo sapiens, UniProt P08069): CC1(C)C(=O)N(c2ccc(SC(F)(F)F)cc2)C(=O)N1Cc1ccnc(NC(=O)NC2CCOCC2)c1 [Compound 306]
Reply: ≥ 6.30

Task item: Tell me its pIC50 on IGF-1R (Homo sapiens, UniProt P08069): CC(C)Nc1cc(CN2C(=O)N(c3ccc(SC(F)(F)F)nc3)C(=O)C2(C)C)ccn1 [Compound 392]
Reply: 5.70 to 6.30

Task item: Tell me its pIC50 on IGF-1R (Homo sapiens, UniProt P08069): CC1(C)C(=O)N(c2ccc(SC(F)(F)F)cc2)C(=O)N1Cc1ccnc(N)c1Br [Compound 388]
Reply: ≥ 6.30

Task item: Tell me its pIC50 on IGF-1R (Homo sapiens, UniProt P08069): CC1(C)C(=O)N(c2ccc(SC(F)(F)F)cc2)C(=O)N1Cc1ccnc(NC2CCOCC2)c1 [Compound 310]
Reply: ≥ 6.30

Task item: Tell me its pIC50 on IGF-1R (Homo sapiens, UniProt P08069): CC1(C)C(=O)N(c2ccc(C3(C(F)(F)F)CC3)cc2)C(=O)N1Cc1ccnc(N)c1 [Compound 83]
Reply: ≥ 6.30
